- Test system: 156681-154-R-J1-PDC complex spheroid viability;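 further: spheroids exposed to the agents for seven days; 100% = DMSO vehicle control viability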
- measurement_description: Anticancer human tumor 156681-154-R-J1-PDC patient-derived melanoma cell line growth inhibition [CLK]
- test_context: second compound 3.16 µM; first compound 0.316 µM; active compounds read low
- Source text: A high-throughput screen of multi-cell type tumor spheroids was designed to identify active combinations of […] and targeted small molecules. Complex spheroids include a stromal component modeled by human endothelial cells (HUVEC) and fibroblasts modeled by human mesenchymal stem cells (MSCs). […] Compounds. […] If the clinical Cmax for an agent had not been determined, the highest concentration tested was 10 microM. […]
recorded_endpoint: viability, T/C (%)

INSERT INTO assay_data (molecule, u, numeric_readout) VALUES
  ('CC(Nc1ccc2c(c1)OCCn1cc(N3C(=O)OCC3C(F)F)nc1-2)C(N)=O (centres undefined) + CNC(=O)c1ccc(Nc2nc(OC3CCCC3)c3c(-c4ccc5nc(C)oc5c4)c[nH]c3n2)c(OC)c1', '%', 27.2),
  ('COc1cccc2c1C(=O)c1c(O)c3c(c(O)c1C2=O)CC(O)(C(=O)CO)CC3OC1CC(N)C(O)C(C)O1 (centres undefined) + CNC(=O)c1ccc(Nc2nc(OC3CCCC3)c3c(-c4ccc5nc(C)oc5c4)c[nH]c3n2)c(OC)c1', '%', 0.58),
  ('Nc1ccn(C2OC(CO)C(O)C2(F)F)c(=O)n1 (centres undefined) + CN1CCN(c2cc(C(=O)Nc3cc4cc(-c5cnn(C)c5)ccc4cn3)ccn2)CC1', '%', 0.42),
  ('C#Cc1c(F)ccc2cc(O)cc(-c3ncc4c(N5CC6CCC(C5)N6)nc(OCC56CCCN5CC(F)C6)nc4c3F)c12 (centres undefined) + CN1CCN(c2cc(C(=O)Nc3cc4cc(-c5cnn(C)c5)ccc4cn3)ccn2)CC1', '%', 0.11),
  ('Nc1ccccc1NC(=O)c1ccc(CNC(=O)OCc2cccnc2)cc1 + CN1CCN(c2cc(C(=O)Nc3cc4cc(-c5cnn(C)c5)ccc4cn3)ccn2)CC1', '%', 0.11),
  ('CCCS(=O)(=O)Nc1ccc(F)c(C(=O)c2c[nH]c3ncc(-c4ccc(Cl)cc4)cc23)c1F + CNC(=O)c1ccc(Nc2nc(OC3CCCC3)c3c(-c4ccc5nc(C)oc5c4)c[nH]c3n2)c(OC)c1', '%', 33.5),
  ('COC1C=CCC(C)C(C)S(=O)(=O)NC(=O)c2ccc3c(c2)N(CC2CCC21)CC1(CCCc2cc(Cl)ccc21)CO3 (centres undefined) + CN1CCN(c2cc(C(=O)Nc3cc4cc(-c5cnn(C)c5)ccc4cn3)ccn2)CC1', '%', 1.77),
  ('CC(=O)O[C@H]1C(=O)[C@@]2(C)[C@H]([C@H](OC(=O)c3ccccc3)[C@]3(O)C[C@H](OC(=O)[C@H](O)[C@@H](NC(=O)c4ccccc4)c4ccccc4)C(C)=C1C3(C)C)[C@]1(OC(C)=O)CO[C@@H]1C[C@@H]2O + CNC(=O)c1ccc(Nc2nc(OC3CCCC3)c3c(-c4ccc5nc(C)oc5c4)c[nH]c3n2)c(OC)c1', '%', 56),
  ('COc1cccc2c1C(=O)c1c(O)c3c(c(O)c1C2=O)CC(O)(C(=O)CO)CC3OC1CC(N)C(O)C(C)O1 (centres undefined) + CN1CCN(c2cc(C(=O)Nc3cc4cc(-c5cnn(C)c5)ccc4cn3)ccn2)CC1', '%', 0.08);
